Tested on: OVCAR-8 ovarian
Experiment: NCI-60 one-dose screen, 48 h (100 = growth as untreated, 0 = no growth, -100 = all killed)
Settings: 10 µM unless noted
The panel holds about 83,000 compounds, 20% with a hit somewhere; the sample as a whole holds those more often.
Quantity kind: growth (%)
Just the number in %, nothing appended.

Compound: O=c1ccn(C2CC=C(CO)O2)c(=O)[nH]1 (stereo not given)
growth, %: 103

Q: I would be grateful if you could share the reported growth for Cc1ccc2nc(-c3ccc(N(C)C)c(Br)c3)cn2c1 .
Ans: 93.8

Q: Entry COP(=O)(OC)C(c1ccc(O)cc1)(c1ccc(O)cc1)c1ccc(O)cc1 has what growth?
Ans: 97.2

Q: Reported growth for N#Cc1c(-c2ccc(F)cc2)n2c(nc1=O)SC(=O)C2=O : what is it?
Ans: 98

Q: Bench note: what growth did c1ccc(Nc2ccc(Nc3nc(-c4ccccc4)nc4ccccc34)cc2)cc1 show?
Ans: 76.3

Q: Quick one: growth of CC(NC(N)=S)c1ccccc1 (stereo not given) ?
Ans: 106

Q: What does the data say about its growth? Entry: CCOC(=O)C(Br)=P(c1ccccc1)(c1ccccc1)c1ccccc1
Ans: 90.4

Q: Requested read-out: growth. Entry: CN(C)CCC(=O)Nc1ccc(-n2cc(-c3cccc(NC(=S)Nc4cccc(-c5cn(-c6ccc(NC(=O)CCN(C)C)cc6)nn5)c4)c3)nn2)cc1
Ans: 97.3

Q: Using the record for Cn1c(=O)c2[nH]c(=S)n(Cc3ccccc3)c2n(C)c1=O , report its growth.
Ans: 111

Q: Returns the measured growth for the input compound. Input: Cc1cc(C)nc(NS(=O)(=O)c2ccc(Nc3nc4nc(SCc5ccccc5)nc(-c5ccc(O)cc5)c4c(=O)[nH]3)cc2)n1
Ans: 97

Source: PubChem BioAssay (NCI)
